- Assay Text: photoluminescence quantum yield (fraction); solvent given as SMILES
- Condition Summary: in CCCCCC
Attribute Measured: photoluminescence quantum yield

>>> recorded_result("CC1=[N+]2C(=c3c4c5ccccc5cc5cccc(c6cc(C)n(c36)[B-]2(F)F)c54)C=C1")
0.48
>>> recorded_result("CC(C)[Si](C#Cc1c2nc3c(nc2c(C#C[Si](C(C)C)(C(C)C)C(C)C)c2nc4ccccc4nc12)C1c2ccccc2C3c2ccccc21)(C(C)C)C(C)C")
0.21
>>> recorded_result("CCCCCCCCC1(CCCCCCCC)c2cc(C=O)ccc2-c2ccc(/C=C/c3ccc(N(c4ccccc4)c4ccccc4)cc3)cc21")
0.6
>>> recorded_result("CC(C)[Si](C#Cc1ccc(C#C[Si](C(C)C)(C(C)C)C(C)C)c2nc3cc4c(cc3nc12)[C@H]1c2ccccc2[C@@H]4c2ccccc21)(C(C)C)C(C)C")
0.02
>>> recorded_result("O=C1c2cc(F)ccc2-c2cnccc21")
0.0017
>>> recorded_result("O=C(O)c1ccc2ccc3cccc4ccc1c2c34")
0.56
>>> recorded_result("CCc1c(C)[nH]c(C2=[N+]3C(=C(C)c4c(C)c(CC)c(C)n4[B-]3(F)F)c3ccccc32)c1C")
0.93
>>> recorded_result("Cc1cc(C)c(C2=C3C=C(/C=C/C(=O)OC(C)(C)C)C=[N+]3[B-](F)(F)n3c2ccc3N2CCOCC2)c(C)c1")
0.88
>>> recorded_result("Cc1ccc(C)n1-c1ccc(C#N)cc1")
0.026
>>> recorded_result("CN(C)c1ccc(-c2nc3c(c4c2-c2ccccc2CC4)-c2ccccc2CC3)cc1")
0.05
>>> recorded_result("CCN(CC)/C(C)=N\\c1ccc2c3c(cccc13)C(=O)c1ccccc1-2")
0.21
>>> recorded_result("CC(C)(C)c1ccc2c(c1)sc1[n+]2[B-](F)(F)n2c(c3cccc4cccc2c43)=C1C#N")
0.68

All values here come from the Deep4Chem optical property database.
